system: K562 CRISPRi cells; experiment: Perturb-seq pooled growth measurement (sgRNA counts, growth phenotype γ, relative activity); assay type: cell-based, human; conditions: γ relative to perfectly matched sgRNA (_00) of the same gene, day 10
ASSAY METRIC: relative_activity_day10

{"SUBSTANCE": "GATA1_ −_48645022.23-P1P2_03 (guide GTGCGCTTGCCACATCCCCA; listed as DNA, chemistry not fully specified)", "relative_activity_day10": 1.017}
{"SUBSTANCE": "HSPE1_ + _198365089.23-P1P2_03 (guide GGTGACTCGCAGTCCGGCCC; listed as DNA, chemistry not fully specified)", "relative_activity_day10": 0.8198}
{"SUBSTANCE": "GNB2L1_ + _180670873.23-P1P2_07 (guide GTGCAAGGCGGGGGCAGGAG; listed as DNA, chemistry not fully specified)", "relative_activity_day10": 0.8948}
{"SUBSTANCE": "POLR1D_ + _28196016.23-P1_00 (guide GGGAAGCAAGGACCGACCGA; listed as DNA, chemistry not fully specified)", "relative_activity_day10": 1}
{"SUBSTANCE": "TUBB_ + _30688126.23-P1_01 (guide GCAGCAGGAAGGTTCTGAGA; listed as DNA, chemistry not fully specified)", "relative_activity_day10": 0.8743}
{"SUBSTANCE": "POLR1D_ + _28196016.23-P1_01 (guide GGGAAGCCAGGACCGACCGA; listed as DNA, chemistry not fully specified)", "relative_activity_day10": 0.8718}

In the following, a different substance is considered.
*Q* Using the record for HSPE1_ + _198365089.23-P1P2_02 (guide GGAGACTGGCAGTCCGGCCC; listed as DNA, chemistry not fully specified) , report its relative_activity_day10.
*A* 0.6285

----------
system: K562 CRISPRi cells; assay: Perturb-seq pooled growth measurement (sgRNA counts, growth phenotype γ, relative activity); type: cell-based, human; settings: pooled growth phenotype γ of the Perturb-seq sgRNA, day 5, K562 CRISPRi cells
# label = TRUE if gamma_day5 < -0.8 else FALSE

{"SUBSTANCE": "RPS15_ −_1438413.23-P1P2_00 (guide GACCAAAGCGATCTCTTCTG; listed as DNA, chemistry not fully specified)", "LABEL": "FALSE"}

*Q* Quick check: does TUBB_ + _30688126.23-P1_10 (guide GCGGCAGGAAGGTTCAGAGA; listed as DNA, chemistry not fully specified) have gamma_day5 under -0.8?
*A* FALSE

*Q* Again, but for TUBB_ + _30688126.23-P1_01 (guide GCAGCAGGAAGGTTCTGAGA; listed as DNA, chemistry not fully specified)
*A* TRUE

*Q* // next record RPS14_ + _149829238.23-P1P2_08 (guide GAGGCCCGGGCTCGACAATC; listed as DNA, chemistry not fully specified)
*A* FALSE

*Q* Again, but for RAN_ + _131356438.23-P1P2_00 (guide GGCGGTCGCTGCGCTTAGGG; listed as DNA, chemistry not fully specified)
*A* FALSE

*Q* And for RPS14_ + _149829238.23-P1P2_01 (guide GAGACCCGGGCGCGACAATC; listed as DNA, chemistry not fully specified) ?
*A* FALSE

*Q* Same question, COX11_ + _53045977.23-P1P2_00 (guide GGCTCTGGCGTCCTGGATGG; listed as DNA, chemistry not fully specified) this time
*A* FALSE

*Q* Lookup BCR_ + _23523092.23-P1P2_00 (guide GCGCGCGGGGCCCGTCTCAG; listed as DNA, chemistry not fully specified)
*A* TRUE

*Q* CAD_ + _27440280.23-P1P2_00 (guide GGCTGGAGAGAAGCCGGGCG; listed as DNA, chemistry not fully specified) ?
*A* FALSE

*Q* Entry ALDOA_ + _30077139.23-P1P2_14 (guide GGTCACCAGGACCGCTTCTG; listed as DNA, chemistry not fully specified) please
*A* FALSE

*Q* And BCR_ + _23523092.23-P1P2_15 (guide GCGCGCGGGGCCCGTCGCAG; listed as DNA, chemistry not fully specified) ?
*A* FALSE

*Q* Similarly, GATA1_ −_48645022.23-P1P2_04 (guide GTGAGCTTACCACATCCCCA; listed as DNA, chemistry not fully specified) ?
*A* TRUE

*Q* And COX11_ + _53045977.23-P1P2_03 (guide GGCTCTGTCGTCCTGGATGG; listed as DNA, chemistry not fully specified) ?
*A* FALSE

*Q* Same for RPS14_ + _149829238.23-P1P2_02 (guide GAGGCCCTGGCGCGACAATC; listed as DNA, chemistry not fully specified)
*A* FALSE
